pKi: −log10 of the molar value.
Cannabinoid receptor 1 (Homo sapiens, UniProt P21554) pKi data
Sequence (P21554 whole entry): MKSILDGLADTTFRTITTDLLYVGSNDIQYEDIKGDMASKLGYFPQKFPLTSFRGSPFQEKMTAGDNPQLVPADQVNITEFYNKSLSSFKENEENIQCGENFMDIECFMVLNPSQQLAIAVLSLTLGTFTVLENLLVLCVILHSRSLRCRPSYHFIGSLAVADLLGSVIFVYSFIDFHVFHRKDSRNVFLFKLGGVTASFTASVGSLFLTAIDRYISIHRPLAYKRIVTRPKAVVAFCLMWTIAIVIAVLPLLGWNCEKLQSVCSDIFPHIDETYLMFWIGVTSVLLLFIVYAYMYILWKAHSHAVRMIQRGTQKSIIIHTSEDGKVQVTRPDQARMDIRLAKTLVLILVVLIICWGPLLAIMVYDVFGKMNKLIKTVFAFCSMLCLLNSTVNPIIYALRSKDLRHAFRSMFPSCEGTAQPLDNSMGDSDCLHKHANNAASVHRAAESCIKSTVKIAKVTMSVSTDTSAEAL
observable: pKi

>>> recordedresult("O=C(Cc1ccc(Br)cc1)NCCC(c1ccccc1)c1ccccc1")
6.10
>>> recordedresult("O=C(NCCC(c1ccccc1)c1ccccc1)C(c1ccccc1)c1ccccc1")
7.24
>>> recordedresult("O=C(NCCC(c1ccccc1)c1ccccc1)C(O)(c1ccccc1)c1ccccc1")
5.66
>>> recordedresult("O=C(NCCC(c1ccccc1)c1ccccc1)C(Cl)(c1ccccc1)c1ccccc1")
6.55

Recorded values, source ChEMBL document CHEMBL1155783.
